Test system: COLO 205 colon
protocol summary: NCI tumour cell line growth inhibition, 48 h
Where a SMILES comes first, the peptide text is derived from it. The star is where a group is joined. Boc = CC(C)(C)OC(=O)*; tBu = CC(C)(C)*
Recorded measurements of TGI, one per entry

# molecule, study system, TGI
data = [
    ("O=C(O)c1ccccc1CC(Cc1ccccc1)C(=O)O (centres undefined)", "COLO 205 colon", "> 100 µM"),
    ("COc1cccc(Nc2nc(NS(=O)(=O)c3cc(C)c(Cl)cc3S)n[nH]2)c1", "COLO 205 colon", "> 100 µM"),
    ("Cn1c(CC(O)c2nc3ccccc3n2C)nc2ccccc21 (centres undefined)", "COLO 205 colon", "> 35.8 µM"),
    ("CC(OC(C)(C)C)C(NC(=O)C(N)CCCCNC(=O)OC(C)(C)C)C(=O)NC(Cc1ccccc1)C(=O)O (centres undefined) (H-Lys(Boc)-Thr(tBu)-Phe-OH; configuration not given here)", "COLO 205 colon", "> 100 µM"),
]
